Data credit: ChEMBL document CHEMBL5131384

tested on: SGC-7901; assay: Antiproliferative activity against human SGC-7901 cells assessed as reduction in cell viability incubated for 72 hrs by WST-8 assay; assay type: functional, cell-based; details: SGC-7901, 72 h
The label is 1 for IC50 below 3 µM and -1 for IC50 equal to or exceeding 3 µM.

compound: O=C(CCCCCCn1c(C(=O)NC2C3CC4CC(C3)CC2C4)cc2ccccc21)NO (stereo not drawn)
label: -1

compound: O=C(CCCCCCn1cc(C(=O)NC2CCCCC2)c2ccccc21)NO
label: -1

compound: O=C(CCCCCCn1cc(C(=O)NC23CC4CC(CC(C4)C2)C3)c2ccccc21)NO
label: -1

compound: COc1ccc2c(c1)cc(C(=O)NC1C3CC4CC(C3)CC1C4)n2CCCCCCC(=O)NO (stereo not drawn)
label: 1

compound: O=C(CCCCCCn1cc(C(=O)NCc2ccc(Cl)cc2)c2ccccc21)NO
label: -1

compound: O=C(CCCCCCn1c(C(=O)NC2C3CC4CC(C3)CC2C4)cc2ccc(Br)cc21)NO (stereo not drawn)
label: 1

compound: O=C(CCCCCCn1cc(C(=O)NC2CCCCCCC2)c2ccccc21)NO
label: -1

compound: O=C(CCCCCCn1cc(C(=O)Nc2ccc(Cl)cc2Cl)c2ccccc21)NO
label: 1
